experiment: protein stability index of a GFP-peptide fusion (GPS, HEK-293T) (PSI 1-6); higher = more stable; settings: treatment: DMSO; c terminus: a fixed tail appended;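 further: 24-mer peptide tiles fused after GFP, lentivirally expressed, FACS-sorted into six equal bins by GFP/DsRed ratio, decoded by Illumina sequencing, PSI is the read-weighted mean bin number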
The entries below are paired with their reported protein stability index.
Lab note: write the figure by itself, no unit.

Check out these entries, answers already filled in.
- chain-sequence: "LRRELELLGRERDRVQVERDGLAE [PRPH]"
  protein stability index: 4.6
- chain-sequence: "AALCLEVTLKTAVDGPDLEMLTGQ [FKBP8]"
  protein stability index: 2.47

Input line: Entry RNLLVENIIDIYKQESTRPEKKSD [TRIM55] : reported protein stability index = ?
Output line: 4.42

Input line: Entry HSGYDFGYLIKILTNSNLPEEELD [CNOT7] : reported protein stability index = ?
Output line: 2.27
